# Test system: Glutamate receptor ionotropic NMDA 1 non-selective, GRIN1 (r)
# experimentalContext: IPP screening at 100 uM; control CGS 19755
Peptide text beside a SMILES is read from it.
propertyLabel: Specific binding (%)
Enter your answer as a number in %; do not include the unit.

Specific binding reported for this compound CC(C)(CO)C(O)C(=O)NCCCO (stereo not drawn) : 0.2

Specific binding reported for this compound "Cc1c(O)cccc1O" : 1.8

Specific binding reported for this compound O=P1(N(CCCl)CCCl)NCCCO1 (stereo not drawn) [Cyclophosphamide] : 6.8

Specific binding reported for this compound COC(=O)[C@H](Cc1ccccc1)NC(=O)[C@@H](N)CC(=O)O [Aspartame] (H-Asp-Phe-OMe) : 24.0

Specific binding reported for this compound CC1(C)O[C@@H]2[C@@H](CO[C@@]3(COS(N)(=O)=O)OC(C)(C)O[C@@H]23)O1 [Topiramate] : -5.1

Specific binding reported for this compound "Nc1ccc(NCCO)c([N+](=O)[O-])c1" : 0.4

Specific binding reported for this compound O=C(O)c1ccc2c(c1)C(=O)OC2=O [Trimellitic anhydride] : 9.9

Specific binding reported for this compound COc1ccc(Cl)cc1C(=O)NCCc1ccc(S(=O)(=O)NC(=O)NC2CCCCC2)cc1 [Glybenclamide] : 10.7

Specific binding reported for this compound CCCCCCC(O)CO (stereo not drawn) : 3.1
